Experiment: physchem
Measured solubility by item
The figure you give is taken to be in mg/mL; do not add the unit.

Consider the reported solubility for these compounds:
>  <compound>
CNC(=O)C(C1CCC1)N(CC(c1ccccc1)c1ccccc1)C(=O)c1cc(C)c(=O)n(C)c1 (centres undefined)

>  <solubility / mg/mL>
0.161

$$$$
>  <compound>
CNC(=O)C(C(C)C)N(CC(c1ccccc1)c1ccccc1)C(=O)c1cc(C)c(=O)n(C)c1 (centres undefined)

>  <solubility / mg/mL>
0.105

$$$$
>  <compound>
CNC(=O)C(N(CC(c1ccccc1)c1ccccc1)C(=O)c1cc(C)c(=O)n(C)c1)C(C)(C)C (centres undefined)

>  <solubility / mg/mL>
0.093

$$$$
>  <compound>
CNC(=O)C(C)N(CC(c1ccccc1)c1ccccc1)C(=O)c1cc(C)c(=O)n(C)c1 (centres undefined)

>  <solubility / mg/mL>
0.213

$$$$

Here's the next entry for you.
Lab note: Cc1cc(C(=O)N(CC(c2ccccc2)c2ccccc2)C(C)C2CCCO2)cn(C)c1=O (centres undefined) gave solubility of 0.108

* * *

Assay: Volume of distribution at steady state in Wistar Han rat at 1 mg/kg, iv measured up to 24 hrs by LC-MS/MS analysis
Assay type: ADME, organism-based
Conditions: in vivo, read-out: Vdss
experimentalReadout: Vd (L/kg)
Respond with the bare value in L/kg.

Measured Vd of CNC(=O)[C@H](C1CCOCC1)N(CC(c1ccccc1)c1ccccn1)C(=O)c1cc(C)c(=O)n(C)c1 (stereo in doubt) : 0.6

* * *

Test: Half life in Wistar Han rat at 1 mg/kg, iv measured up to 24 hrs by LC-MS/MS analysis
Type: ADME, organism-based
Details: in vivo
experimentalReadout: half-life (min)
Entry rule: numbers only, all in min.

Value of half-life reported for the compound CNC(=O)[C@H](C1CCOCC1)N(CC(c1ccccc1)c1ccccn1)C(=O)c1cc(C)c(=O)n(C)c1 (stereo in doubt) is 11.4

* * *

Consider the following molecules and their measured solubility readings.
Test: Solubility of compound in pH 7.4 by charged aerosol detection method
Type: physicochemical
Conditions: buffer

>  <molecule>
CNC(=O)C(C1CCOC1)N(CC(c1ccccc1)c1ccccc1)C(=O)c1cc(C)c(=O)n(C)c1 (stereo in doubt; 21)

>  <solubility>
> 143 µg/mL

$$$$
>  <molecule>
CNC(=O)C(C1CCOC1)N(CC(c1ccccc1)c1ccccc1)C(=O)c1cc(C)c(=O)n(C)c1 (stereo in doubt; 23)

>  <solubility>
> 181 µg/mL

$$$$

solubility recorded for this molecule, CNC(=O)C(C1CCOC1)N(CC(c1ccccc1)c1ccccc1)C(=O)c1cc(C)c(=O)n(C)c1 (stereo in doubt; 24) , is > 153 µg/mL

Recorded result, CNC(=O)C(C1CCOC1)N(CC(c1ccccc1)c1ccccc1)C(=O)c1cc(C)c(=O)n(C)c1 (stereo in doubt; 22) , solubility: > 185 µg/mL

* * *

Test: Clearance in Wistar Han rat at 1 mg/kg, iv measured up to 24 hrs by LC-MS/MS analysis
Format: ADME, organism-based
Details: in vivo
experimentalReadout: clearance (mL/min/kg)
All answers are understood in mL/min/kg, so give the number only.

Short answer for CNC(=O)[C@H](C1CCOCC1)N(CC(c1ccccc1)c1ccccn1)C(=O)c1cc(C)c(=O)n(C)c1 (stereo in doubt) : clearance was 50

* * *

Assay: Tmax in Wistar Han rat at 3 mg/kg, po measured up to 24 hrs by LC-MS/MS analysis
Type: ADME, organism-based
Conditions: in vivo
experimentalReadout: Tmax (min)
# unit: min | format: bare number

The compound listed as CNC(=O)[C@H](C1CCOCC1)N(CC(c1ccccc1)c1ccccn1)C(=O)c1cc(C)c(=O)n(C)c1 (stereo in doubt) shows Tmax equal to 15

* * *

Assay: physchem
Settings: buffer, pH 7.4, logD
experimentalReadout: logD
Respond with the number and no other words.

>  <compound>
CNC(=O)C(C)N(CC(c1ccccc1)c1ccccc1)C(=O)c1cn(C)c(=O)c(C)n1 (stereo not drawn)

>  <logD>
4.1

$$$$

The recorded logD for Cc1cc(C(=O)N(CCN2CCOCC2)CC(c2ccccc2)c2ccccc2)cn(C)c1=O is 4.1

Record summary for CNC(=O)C1(N(CC(c2ccccc2)c2ccccc2)C(=O)c2cc(C)c(=O)n(C)c2)CCC1 : reported logD = 4.9

* * *

Test: Cmax in Wistar Han rat at 3 mg/kg, po measured up to 24 hrs by LC-MS/MS analysis
Type: ADME, organism-based
Set-up: route oral, dose 3 mg/kg, time <=24
Details: in vivo
experimentalReadout: Cmax
Put down the number, then write its unit next to it.

// Cmax lookup, compound = CNC(=O)[C@H](C1CCOCC1)N(CC(c1ccccc1)c1ccccn1)C(=O)c1cc(C)c(=O)n(C)c1 (stereo in doubt) , result: 398 nM

* * *

Test: physchem
solubility values for the molecules below.

Worked examples follow.
>  <molecule>
CNC(=O)C1(N(CC(c2ccccc2)c2ccccc2)C(=O)c2cc(C)c(=O)n(C)c2)CCC1

>  <valueReported>
> 150 µg/mL

$$$$
>  <molecule>
Cc1cc(C(=O)N(CC(c2ccccc2)c2ccccc2)C(C)CN2CCOCC2)cn(C)c1=O (stereo not drawn)

>  <valueReported>
> 206 µg/mL

$$$$
>  <molecule>
CNC(=O)C(C1CC1)N(CC(c1ccccc1)c1ccccc1)C(=O)c1cc(C)c(=O)n(C)c1 (stereo not drawn)

>  <valueReported>
91 µg/mL

$$$$
>  <molecule>
Cc1cc(C(=O)N(CCN2CCOCC2)CC(c2ccccc2)c2ccccc2)cn(C)c1=O

>  <valueReported>
> 239 µg/mL

$$$$
>  <molecule>
CNC(=O)[C@@H](C)N(CC(c1ccccc1)c1ccccc1)C(=O)c1cc(C)c(=O)n(C)c1

>  <valueReported>
> 211 µg/mL

$$$$

Reported solubility ( COCC(COC)N(CC(c1ccccc1)c1ccccc1)C(=O)c1cc(C)c(=O)n(C)c1 ) = > 186 µg/mL

// recorded solubility for Cc1cc(C(=O)N(CC(N)=O)CC(c2ccccc2)c2ccccc2)cn(C)c1=O : > 175 µg/mL

// sample CNC(=O)CN(CC(c1ccccc1)c1ccccc1)C(=O)c1cc(C)c(=O)n(C)c1 , its solubility was 163 µg/mL

The reported value for CCNC(=O)C(C)N(CC(c1ccccc1)c1ccccc1)C(=O)c1ccc(=O)n(C)c1 (stereo not drawn) in terms of solubility is > 169 µg/mL

* * *

Recorded measurements of solubility, one per entry
Experiment: Solubility of compound in pH 7.4 by charged aerosol detection method
Assay type: physicochemical
Settings: buffer, read-out: solubility

>  <molecule>
CNC(=O)C(C1CCOC1)N(CC(c1ccccc1)c1ccccc1)C(=O)c1cc(C)c(=O)n(C)c1 (racemic)

>  <solubility>
> 138 µg/mL

$$$$
>  <molecule>
CNC(=O)C(C)N(CC(c1ccccc1)c1ccccc1)C(=O)c1cn(C)c(=O)c(C)n1 (stereo not drawn)

>  <solubility>
> 102 µg/mL

$$$$

Continue with the next molecule.
Given item CNC(=O)[C@H](C1CCOCC1)N(CC(c1ccccc1)c1ccccn1)C(=O)c1cc(C)c(=O)n(C)c1 (stereo in doubt) , the value recorded as its solubility is > 231 µg/mL

* * *

Settings: buffer, pH 7.4
experimentalReadout: logD

Use these answered entries as a reference point.
>  <compound>
CNC(=O)C(C)N(CC(c1ccccc1)c1ccccn1)C(=O)c1cc(C)c(=O)n(C)c1 (stereo in doubt; 51)

>  <valueReported>
2.1

$$$$
>  <compound>
CNC(=O)C(C)N(CC(c1ccccc1)c1ccccn1)C(=O)c1cc(C)c(=O)n(C)c1 (stereo in doubt; 57)

>  <valueReported>
2.6

$$$$
>  <compound>
CNC(=O)[C@H](C1CCOCC1)N(CC(c1ccccc1)c1ccccn1)C(=O)c1cc(C)c(=O)n(C)c1 (stereo in doubt)

>  <valueReported>
2.9

$$$$

The value of logD measured for the compound CNC(=O)C(C)N(CC(c1ccccc1)c1ccccn1)C(=O)c1cc(C)c(=O)n(C)c1 (stereo in doubt; 56) turned out to be 2.7

GET /value?item= CNC(=O)[C@@H](C1CCOCC1)N(CC(c1ccccc1)c1ccccn1)C(=O)c1cc(C)c(=O)n(C)c1 (stereo in doubt; 63) &field=logD returns 2.9

* * *

Test: physchem
Conditions: buffer, pH 7.4, logD
// returns Not fulfilled unless logD is strictly below 3, in which case Fulfilled

Prompt line: Please state whether logD is below 3 for CCNC(=O)C(C)N(CC(c1ccccc1)c1ccccc1)C(=O)c1ccc(=O)n(C)c1 (centres undefined)
Response line: Not fulfilled

Prompt line: Is logD of CNC(=O)C1(N(CC(c2ccccc2)c2ccccc2)C(=O)c2cc(C)c(=O)n(C)c2)CCCC1 strictly below 3?
Response line: Not fulfilled

* * *

Assay: physchem
Details: FaSSIF, pH 6.5
Think of 90 µg/mL as a floor: if solubility at 16 h stands on it or above, it is condition met; beneath it, condition not met.

Solved cases (3 shown):
>  <compound>
CNC(=O)C(C1CCOC1)N(CC(c1ccccc1)c1ccccc1)C(=O)c1cc(C)c(=O)n(C)c1 (stereo in doubt; 21)

>  <classLabel>
condition met

$$$$
>  <compound>
Cc1cc(C(=O)N(CC(c2ccccc2)c2ccccc2)C(C)C#N)cn(C)c1=O (stereo not drawn)

>  <classLabel>
condition not met

$$$$
>  <compound>
CCC(C(=O)NC)N(CC(c1ccccc1)c1ccccc1)C(=O)c1cc(C)c(=O)n(C)c1 (stereo not drawn)

>  <classLabel>
condition met

$$$$

Please turn your attention to the following entry.
Prompt line: Please indicate if the recorded solubility at 16 h for CNC(=O)C(C1CC1)N(CC(c1ccccc1)c1ccccc1)C(=O)c1cc(C)c(=O)n(C)c1 (stereo not drawn) meets or exceeds 90 µg/mL.
Response line: condition not met
